Just for reference, PubChem BioAssay AID1918953 is where these values come from.

- Tested on: MDA-MB-231 complex spheroid viability
- assay text: Anticancer human tumor MDA-MB-231/ATCC cell line growth inhibition;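 also: drug exposure lasted 7 days starting on day 3 of spheroid growth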
- assay context: second compound 3.16 µM; first compound 0.0949 µM; stronger effect = lower value
- Text: Multicellular complex tumor spheroid response to LSD1 Inhibitor Iadademstat in combination with a variety of drugs and investigational agents in selected tumor cell lines The current study was undertaken to assess response to LSD1 inhibitors in combination with standard-of-care drugs and investigational agents in solid tumor complex spheroid models as well as in the K-562 leukemia. […] Compounds. […] If the clinical Cmax for an agent had not been determined, the highest concentration tested was 10 microM. […]
Under this convention, Fulfilled denotes viability, T/C strictly below 30% and Not fulfilled denotes viability, T/C at or above 30%.

molecule | class label
Nc1ccccc1NC(=O)c1ccc(CNC(=O)OCc2cccnc2)cc1 + NC1CCC(NC2CC2c2ccccc2)CC1 | Not fulfilled

Please find the next molecule below.
Record O=C(C=Cc1cccc(S(=O)(=O)Nc2ccccc2)c1)NO + NC1CC1c1ccc(-c2cccc(O)c2)cc1 : is its viability, T/C strictly below 30%?
Fulfilled

* * *

- Tested on: MDA-MB-231 complex spheroid viability
- assay text: Anticancer human tumor MDA-MB-231/ATCC cell line growth inhibition;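 also: drug exposure lasted 7 days starting on day 3 of spheroid growth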
- assay context: second compound 1 µM; first compound 0.000316 µM; stronger effect = lower value
- Source text: Multicellular complex tumor spheroid response to LSD1 Inhibitor Iadademstat in combination with a variety of drugs and investigational agents in selected tumor cell lines The current study was undertaken to assess response to LSD1 inhibitors in combination with standard-of-care drugs and investigational agents in solid tumor complex spheroid models as well as in the K-562 leukemia. […] Compounds. […] If the clinical Cmax for an agent had not been determined, the highest concentration tested was 10 microM. […]
quantity name: viability, T/C (%)
Numbers only, in %.

molecule | quantity name | recorded result
CC[C@@]1(O)C(=O)OCc2c1cc1n(c2=O)Cc2cc3c(CN(C)C)c(O)ccc3nc2-1 + NC1CCC(NC2CC2c2ccccc2)CC1 | viability, T/C | 87.3

Would you mind giving viability, T/C for every molecule in the list below?
1. CC(C)CC(NC(=O)C(Cc1ccccc1)NC(=O)c1cnccn1)B(O)O (stereo not given) + NC1CCC(NC2CC2c2ccccc2)CC1
2. Cn1ncnc1C1c2n[nH]c(=O)c3cc(F)cc(c23)NC1c1ccc(F)cc1 (stereo not given) + NC1CCC(NC2CC2c2ccccc2)CC1
3. CC[C@@]1(O)C(=O)OCc2c1cc1n(c2=O)Cc2cc3c(CN(C)C)c(O)ccc3nc2-1 + NC1CC1c1ccc(-c2cccc(O)c2)cc1
4. Cn1ncnc1C1c2n[nH]c(=O)c3cc(F)cc(c23)NC1c1ccc(F)cc1 (stereo not given) + NC1CC1c1ccc(-c2cccc(O)c2)cc1

[104, 92.3, 62.3, 62.4]

* * *

- System: MDA-MB-231 complex spheroid viability
- assay text: Anticancer human tumor MDA-MB-231/ATCC cell line growth inhibition; active = viability on the fitted dose curve at most 10% of control; inactive = the rest;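 also: drug exposure lasted 7 days starting on day 3 of spheroid growth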
- assay context: second compound 0.1 µM; first compound 0.949 µM
Your reply should match one of these outcome classes. active, inactive

Study these solved cases before continuing.
molecule | class label
Nc1ccccc1NC(=O)c1ccc(CNC(=O)OCc2cccnc2)cc1 + NC1CCC(NC2CC2c2ccccc2)CC1 | inactive
Nc1ccccc1NC(=O)c1ccc(CNC(=O)OCc2cccnc2)cc1 + NC1CC1c1ccc(-c2cccc(O)c2)cc1 | active

--- query ---
Hi, sorry to bother you, what did the test record for NS(=O)(=O)OCC1CC(n2ccc3c(NC4CCc5ccccc54)ncnc32)CC1O (stereo not drawn) + NC1CCC(NC2CC2c2ccccc2)CC1 ?
inactive

* * *

- System: MDA-MB-231 complex spheroid viability
- assay text: Anticancer human tumor MDA-MB-231/ATCC cell line growth inhibition;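 also: drug exposure lasted 7 days starting on day 3 of spheroid growth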
- assay context: second compound 1 µM; first compound 0.316 µM; stronger effect = lower value
Can you tell me viability, T/C for the items I'm about to list?
Numbers only, in %.

Answered examples (3):
compound | output unit | viability, T/C
CC1COCCN1c1cc(C2(S(C)(=N)=O)CC2)nc(-c2ccnc3[nH]ccc23)n1 (stereo not given) + NC1CCC(NC2CC2c2ccccc2)CC1 | % | 79.5
Nc1ncn(C2CC(O)C(CO)O2)c(=O)n1 (stereo not given) + NC1CCC(NC2CC2c2ccccc2)CC1 | % | 67.4
COc1ccc([C@@H](O)c2cc(-c3ncnc4cc(N5CCOCC5)ccc34)c(F)cc2Cl)nn1 + NC1CCC(NC2CC2c2ccccc2)CC1 | % | 65.7

Please report viability, T/C for every entry that follows.
1. O=C(C=Cn1cnc(-c2cc(C(F)(F)F)cc(C(F)(F)F)c2)n1)NNc1cnccn1 + NC1CC1c1ccc(-c2cccc(O)c2)cc1
2. O=C(c1cc(Cc2n[nH]c(=O)c3ccccc23)ccc1F)N1CCN(C(=O)C2CC2)CC1 + NC1CCC(NC2CC2c2ccccc2)CC1
3. Nc1ncn(C2CC(O)C(CO)O2)c(=O)n1 (stereo not given) + NC1CC1c1ccc(-c2cccc(O)c2)cc1
4. COc1ccc([C@@H](O)c2cc(-c3ncnc4cc(N5CCOCC5)ccc34)c(F)cc2Cl)nn1 + NC1CC1c1ccc(-c2cccc(O)c2)cc1
5. O=C(C=Cn1cnc(-c2cc(C(F)(F)F)cc(C(F)(F)F)c2)n1)NNc1cnccn1 + NC1CCC(NC2CC2c2ccccc2)CC1
6. CC1COCCN1c1cc(-c2ccnn2C)c2ccnc(-c3ccn[nH]3)c2n1 (stereo not given) + NC1CCC(NC2CC2c2ccccc2)CC1

4.77
84.3
47.7
36
8.75
27.4

Items follow; give viability, T/C for each.
1. CC1COCCN1c1cc(C2(S(C)(=N)=O)CC2)nc(-c2ccnc3[nH]ccc23)n1 (stereo not given) + NC1CC1c1ccc(-c2cccc(O)c2)cc1
2. COc1cc(Nc2ncc3c(n2)-c2ccc(Cl)cc2C(c2c(F)cccc2OC)=NC3)ccc1C(=O)O + NC1CC1c1ccc(-c2cccc(O)c2)cc1
3. CC1(C)CCC(CN2CCN(c3ccc(C(=O)NS(=O)(=O)c4ccc(NCC5CCOCC5)c([N+](=O)[O-])c4)c(Oc4cnc5[nH]ccc5c4)c3)CC2)=C(c2ccc(Cl)cc2)C1 + NC1CC1c1ccc(-c2cccc(O)c2)cc1

57.4
25.1
76.7

* * *

Consider the following molecules; for each one, report its IC50.
- Test system: MDA-MB-231 complex spheroid viability
- assay text: Anticancer human tumor MDA-MB-231/ATCC cell line growth inhibition;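 also: drug exposure lasted 7 days starting on day 3 of spheroid growth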
- assay context: curve of first compound; second compound 0.316 µM

Some molecules with recorded IC50:
molecule | target or system | IC50
O=C(C=Cn1cnc(-c2cc(C(F)(F)F)cc(C(F)(F)F)c2)n1)NNc1cnccn1 + NC1CC1c1ccc(-c2cccc(O)c2)cc1 | MDA-MB-231 complex spheroid viability | < 3.16 nM
CC(C)c1c(-c2ccccc2)nc2c(C#N)c[nH]n2c1=O + NC1CC1c1ccc(-c2cccc(O)c2)cc1 | MDA-MB-231 complex spheroid viability | > 10000 nM
CCN(c1cc(-c2ccc(CN3CCOCC3)cc2)cc(C(=O)NCc2c(C)cc(C)[nH]c2=O)c1C)C1CCOCC1 + NC1CCC(NC2CC2c2ccccc2)CC1 | MDA-MB-231 complex spheroid viability | > 3000 nM

Please give IC50, item by item, for the list that follows.
1. COc1cc(Nc2ncc3c(n2)-c2ccc(Cl)cc2C(c2c(F)cccc2OC)=NC3)ccc1C(=O)O + NC1CC1c1ccc(-c2cccc(O)c2)cc1
2. CC(C)CC(NC(=O)C(Cc1ccccc1)NC(=O)c1cnccn1)B(O)O (stereo not given) + NC1CC1c1ccc(-c2cccc(O)c2)cc1
3. Nc1ccn(C2OC(CO)C(O)C2(F)F)c(=O)n1 (stereo not given) + NC1CCC(NC2CC2c2ccccc2)CC1
4. Nc1ccn(C2OC(CO)C(O)C2(F)F)c(=O)n1 (stereo not given) + NC1CC1c1ccc(-c2cccc(O)c2)cc1
5. Cn1ncnc1C1c2n[nH]c(=O)c3cc(F)cc(c23)NC1c1ccc(F)cc1 (stereo not given) + NC1CCC(NC2CC2c2ccccc2)CC1
6. O=C(c1cc(Cc2n[nH]c(=O)c3ccccc23)ccc1F)N1CCN(C(=O)C2CC2)CC1 + NC1CCC(NC2CC2c2ccccc2)CC1
7. Nc1ncn(C2CC(O)C(CO)O2)c(=O)n1 (stereo not given) + NC1CCC(NC2CC2c2ccccc2)CC1

1. < 3.16 nM
2. < 0.316 nM
3. < 0.949 nM
4. < 0.949 nM
5. > 100 nM
6. > 10000 nM
7. > 1000 nM

* * *

- Test system: MDA-MB-231 complex spheroid viability
- assay text: Anticancer human tumor MDA-MB-231/ATCC cell line growth inhibition;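 also: drug exposure lasted 7 days starting on day 3 of spheroid growth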
- assay context: second compound 3.16 µM; first compound 0.0949 µM; stronger effect = lower value
quantity name: viability, T/C (%)
Numbers only, in %.

compound | target or system | viability, T/C / %
NS(=O)(=O)OCC1CC(n2ccc3c(NC4CCc5ccccc54)ncnc32)CC1O (stereo not drawn) + NC1CC1c1ccc(-c2cccc(O)c2)cc1 | MDA-MB-231 complex spheroid viability | 40.8
CCc1c2c(nc3ccc(O)cc13)-c1cc3c(c(=O)n1C2)COC(=O)[C@]3(O)CC + NC1CCC(NC2CC2c2ccccc2)CC1 | MDA-MB-231 complex spheroid viability | 4.18

Continue with the compound presented below.
Name the recorded viability, T/C of the item O=C(C=Cc1cccc(S(=O)(=O)Nc2ccccc2)c1)NO + NC1CCC(NC2CC2c2ccccc2)CC1 in your answer.
31
